Values compiled from patent US6057135A.

Answer each item with its documented O.D. (X - B).
# System: L-arabinose isomerase
# Test Name: L-arabinose isomerase bioconversion of D-galactose to D-tagatose, enzyme from Arthrobacter sp. ATCC 21920
# Assay type: biochemical
# Particulars: 1.67 M D-galactose, 0.005 M metallic ion, 60° C., 120 min.; O.D. 540, dilution 200×
Numbers only.

Please review the entries below; each comes with its answer.
• [Co+2] = 1.0764
• [Ca] = 0.7107
• [Zn+2] = 0.2544
• [Fe+3] = 0.8003

Field: O.D. (X - B). Fill in for each record below.
1. [Mg]
2. [Fe+2]
3. [Mn+2]

0.7890
0.8030
0.9574
